Here, each record is paired with measured IC50 data.
- Test system: 624824-186-R-J3-PDC multicell spheroids, viability
- protocol_summary: Anticancer human tumor 624824-186-R-J3-PDC patient-derived colon adenocarcinoma cell line growth inhibition [PI3K]
- assay_setup: curve of first compound; second compound 10 µM
- Source text: Combinatorial screen of targeted agents with the PI3K inhibitors inavolisib, alpelisib, duvelisib, and copanlisib in multi-cell type tumor spheroids A high-throughput screen of multi-cell type tumor spheroids was designed to identify active combinations of targeted small molecules and PI3K pathway inhibitors. […] Compounds. […] If the clinical Cmax for an agent had not been determined, the highest concentration tested was 10 microM. […]
Report the figure in µM without appending any unit label.

The cases that follow already have their IC50 on record.
CC(C)NCC(C(=O)N1CCN(c2ncnc3c2C(C)CC3O)CC1)c1ccc(Cl)cc1 (stereo unspecified) + CC(Nc1ncnc2nc[nH]c12)c1cc2cccc(Cl)c2c(=O)n1-c1ccccc1 ... 8.04
CC(C)NCC(C(=O)N1CCN(c2ncnc3c2C(C)CC3O)CC1)c1ccc(Cl)cc1 (stereo unspecified) + Cc1nc(NC(=O)N2CCCC2C(N)=O)sc1-c1ccnc(C(C)(C)C(F)(F)F)c1 ... 1.42
CCCS(=O)(=O)Nc1ccc(F)c(C(=O)c2c[nH]c3ncc(-c4ccc(Cl)cc4)cc23)c1F + Cc1nc(NC(=O)N2CCCC2C(N)=O)sc1-c1ccnc(C(C)(C)C(F)(F)F)c1 ... 0.0866
Cn1nccc1Nc1nccc(-c2ccn(C(CO)c3ccc(Cl)c(F)c3)c(=O)c2)n1 (stereo unspecified) + CC(Nc1ncnc2nc[nH]c12)c1cc2cccc(Cl)c2c(=O)n1-c1ccccc1 ... 0.633
CC1(C)CCC(Nc2ncc(C(F)(F)F)c(-c3c[nH]c4c(P(C)(C)=O)c(C#N)ccc34)n2)CN1 (stereo unspecified) + CC(Nc1ncnc2nc[nH]c12)c1cc2cccc(Cl)c2c(=O)n1-c1ccccc1 ... 3.65
Cn1ncc(Cl)c1-c1cc(C(=O)NC(CN)Cc2cccc(F)c2)sc1Cl (stereo unspecified) + CC(Nc1ncnc2nc[nH]c12)c1cc2cccc(Cl)c2c(=O)n1-c1ccccc1 ... 2.26
C[C@@H](NC(=O)c1ncnc(N)c1Cl)c1ncc(C(=O)Nc2cc(C(F)(F)F)c(Cl)cn2)s1 + Cc1nc(NC(=O)N2CCCC2C(N)=O)sc1-c1ccnc(C(C)(C)C(F)(F)F)c1 ... 0.66
CC1(C)CCC(CN2CCN(c3ccc(C(=O)NS(=O)(=O)c4ccc(NCC5CCOCC5)c([N+](=O)[O-])c4)c(Oc4cnc5[nH]ccc5c4)c3)CC2)=C(c2ccc(Cl)cc2)C1 + CC(Nc1ncnc2nc[nH]c12)c1cc2cccc(Cl)c2c(=O)n1-c1ccccc1 ... 9
CC(C)n1nc(-c2ccc3oc(N)nc3c2)c2c(N)ncnc21 + CC(Nc1ncnc2nc[nH]c12)c1cc2cccc(Cl)c2c(=O)n1-c1ccccc1 ... 0.0619
CCCS(=O)(=O)Nc1ccc(F)c(C(=O)c2c[nH]c3ncc(-c4ccc(Cl)cc4)cc23)c1F + CC(Nc1ncnc2nc[nH]c12)c1cc2cccc(Cl)c2c(=O)n1-c1ccccc1 ... 2.45

Okay, now this molecule:
Fill in the blank: the reported IC50 of CCN1CCN(Cc2ccc(Nc3ncc(F)c(-c4cc(F)c5nc(C)n(C(C)C)c5c4)n3)nc2)CC1 + Cc1nc(NC(=O)N2CCCC2C(N)=O)sc1-c1ccnc(C(C)(C)C(F)(F)F)c1 is ____. 0.0296

---

Here, each record is paired with measured viability, T/C data.
- Tested on: 624824-186-R-J3-PDC multicell spheroids, viability
- protocol_summary: Anticancer human tumor 624824-186-R-J3-PDC cell line growth inhibition [PI3K];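 further: spheroids exposed to agents for seven days before luminescence read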;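 on viability, T/C: luminescent signal used as a stand-in for spheroid viability; percent viability relative to DMSO vehicle control wells taken as 100%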
- assay_setup: second compound 3.16 µM; first compound 0.0316 µM; stronger effect = lower value
Report the figure in % without appending any unit label.

Cn1ncc(Cl)c1-c1cc(C(=O)NC(CN)Cc2cccc(F)c2)sc1Cl (configuration not stated) + Cc1nc(NC(=O)N2CCCC2C(N)=O)sc1-c1ccnc(C(C)(C)C(F)(F)F)c1 ... 76.7
CC1(C)CCC(Nc2ncc(C(F)(F)F)c(-c3c[nH]c4c(P(C)(C)=O)c(C#N)ccc34)n2)CN1 (configuration not stated) + Cc1nc(NC(=O)N2CCCC2C(N)=O)sc1-c1ccnc(C(C)(C)C(F)(F)F)c1 ... 59.1
CC1(C)CCC(CN2CCN(c3ccc(C(=O)NS(=O)(=O)c4ccc(NCC5CCOCC5)c([N+](=O)[O-])c4)c(Oc4cnc5[nH]ccc5c4)c3)CC2)=C(c2ccc(Cl)cc2)C1 + Cc1nc(NC(=O)N2CCCC2C(N)=O)sc1-c1ccnc(C(C)(C)C(F)(F)F)c1 ... 82.5
C[C@@H](NC(=O)c1ncnc(N)c1Cl)c1ncc(C(=O)Nc2cc(C(F)(F)F)c(Cl)cn2)s1 + Cc1nc(NC(=O)N2CCCC2C(N)=O)sc1-c1ccnc(C(C)(C)C(F)(F)F)c1 ... 91.5
CCN1CCN(Cc2ccc(Nc3ncc(F)c(-c4cc(F)c5nc(C)n(C(C)C)c5c4)n3)nc2)CC1 + CC(Nc1ncnc2nc[nH]c12)c1cc2cccc(Cl)c2c(=O)n1-c1ccccc1 ... 102

Give the reported viability, T/C for Cn1ncnc1[C@H]1c2n[nH]c(=O)c3cc(F)cc(c23)N[C@@H]1c1ccc(F)cc1 + CC(Nc1ncnc2nc[nH]c12)c1cc2cccc(Cl)c2c(=O)n1-c1ccccc1 (system: 624824-186-R-J3-PDC multicell spheroids, viability). 104

Give the reported viability, T/C for C[C@@H](NC(=O)c1ncnc(N)c1Cl)c1ncc(C(=O)Nc2cc(C(F)(F)F)c(Cl)cn2)s1 + CC(Nc1ncnc2nc[nH]c12)c1cc2cccc(Cl)c2c(=O)n1-c1ccccc1 (system: 624824-186-R-J3-PDC multicell spheroids, viability). 97.1

Give the reported viability, T/C for CC(C)n1nc(-c2ccc3oc(N)nc3c2)c2c(N)ncnc21 + Cc1nc(NC(=O)N2CCCC2C(N)=O)sc1-c1ccnc(C(C)(C)C(F)(F)F)c1 (system: 624824-186-R-J3-PDC multicell spheroids, viability). 48.5

Give the reported viability, T/C for C=CC(=O)N1CCN(c2nc(=O)n(-c3c(C)ccnc3C(C)C)c3nc(-c4c(O)cccc4F)c(F)cc23)C(C)C1 (configuration not stated) + Cc1nc(NC(=O)N2CCCC2C(N)=O)sc1-c1ccnc(C(C)(C)C(F)(F)F)c1 (system: 624824-186-R-J3-PDC multicell spheroids, viability). 83.6

Give the reported viability, T/C for Cn1nccc1Nc1nccc(-c2ccn(C(CO)c3ccc(Cl)c(F)c3)c(=O)c2)n1 (configuration not stated) + CC(Nc1ncnc2nc[nH]c12)c1cc2cccc(Cl)c2c(=O)n1-c1ccccc1 (system: 624824-186-R-J3-PDC multicell spheroids, viability). 103

Give the reported viability, T/C for Cn1nccc1Nc1nccc(-c2ccn(C(CO)c3ccc(Cl)c(F)c3)c(=O)c2)n1 (configuration not stated) + Cc1nc(NC(=O)N2CCCC2C(N)=O)sc1-c1ccnc(C(C)(C)C(F)(F)F)c1 (system: 624824-186-R-J3-PDC multicell spheroids, viability). 84.5

Give the reported viability, T/C for CC1(C)CCC(CN2CCN(c3ccc(C(=O)NS(=O)(=O)c4ccc(NCC5CCOCC5)c([N+](=O)[O-])c4)c(Oc4cnc5[nH]ccc5c4)c3)CC2)=C(c2ccc(Cl)cc2)C1 + CC(Nc1ncnc2nc[nH]c12)c1cc2cccc(Cl)c2c(=O)n1-c1ccccc1 (system: 624824-186-R-J3-PDC multicell spheroids, viability). 109

Give the reported viability, T/C for Cn1ncc(Cl)c1-c1cc(C(=O)NC(CN)Cc2cccc(F)c2)sc1Cl (configuration not stated) + CC(Nc1ncnc2nc[nH]c12)c1cc2cccc(Cl)c2c(=O)n1-c1ccccc1 (system: 624824-186-R-J3-PDC multicell spheroids, viability). 96.8

Give the reported viability, T/C for CC(Cn1ccc(-c2ccc(C#N)c(Cl)c2)n1)NC(=O)c1cc(C(C)O)[nH]n1 (configuration not stated) + Cc1nc(NC(=O)N2CCCC2C(N)=O)sc1-c1ccnc(C(C)(C)C(F)(F)F)c1 (system: 624824-186-R-J3-PDC multicell spheroids, viability). 86.4

Give the reported viability, T/C for CC(Cn1ccc(-c2ccc(C#N)c(Cl)c2)n1)NC(=O)c1cc(C(C)O)[nH]n1 (configuration not stated) + CC(Nc1ncnc2nc[nH]c12)c1cc2cccc(Cl)c2c(=O)n1-c1ccccc1 (system: 624824-186-R-J3-PDC multicell spheroids, viability). 96.3

Give the reported viability, T/C for CC(C)NCC(C(=O)N1CCN(c2ncnc3c2C(C)CC3O)CC1)c1ccc(Cl)cc1 (configuration not stated) + Cc1nc(NC(=O)N2CCCC2C(N)=O)sc1-c1ccnc(C(C)(C)C(F)(F)F)c1 (system: 624824-186-R-J3-PDC multicell spheroids, viability). 86.8
